system: Vero E6; experiment: relative viability EC50 (midpoint between 100% and the lowest measured viability); higher = less toxic; details: 72 h
quantityKind: relative viability EC50

Here's what some known entries look like.
C[C@]12CC[C@H](O)C[C@H]1CC[C@@H]1[C@@H]2CC[C@]2(C)[C@@](O)(c3ccoc3)CC[C@]12O [rostafuroxine]: > 10 µM
Cc1cnc(Nc2ccc(N3CCN(C)CC3)cc2)nc1Nc1cccc(S(=O)(=O)NC(C)(C)C)c1: 2.41 µM
COc1ccc(-c2cc(=O)c3c(O)cc(O)cc3o2)cc1O [diosmetin]: > 10 µM

# map each molecule to its relative viability EC50
1. O=C(O)CCc1ccc(NCc2cccc(Oc3ccccc3)c2)cc1 [GW-9508]
2. CC(CCc1ccc(O)cc1)NCC(O)c1ccc(O)cc1 (stereo not given) [ractopamine]
3. COc1ccc(/C=C\c2cc(OC)c(OC)c(OC)c2)cc1O [combretastatin-A-4]
4. CC(C)c1cccc2c1OC(C(C)C)C(=S)N2CC(=O)O (stereo not given) [AD-5467]
5. c1ccc(CN(CC2=NCCN2)c2ccccc2)cc1 [antazoline]

// result
1. > 10 µM
2. > 10 µM
3. 0.0107 µM
4. > 10 µM
5. > 10 µM

# map each molecule to its relative viability EC50
1. CC(COc1ccccc1)N(CCCl)Cc1ccccc1 (stereo not given) [phenoxybenzamine]
2. Cc1ccc(S(=O)(=O)NC(=O)NN2CC3CCCC3C2)cc1 (stereo not given) [gliclazide]

// result
> 10 µM
> 10 µM

====

Assignment: determine reported cell viability for the given compounds.
test system: Vero E6; experiment: cell viability relative to DMSO; higher = less toxic; details: 72 h; 1000 nM
Numbers only, in %.

CN(Cc1cccc(-c2ccccc2)c1)C(=O)Oc1ccc(-c2ccc(C(N)=O)cc2)cc1: 99.5
Cc1cccc(-c2[nH]c(C(C)(C)C)nc2-c2ccc3c(c2)OCO3)n1: 96.2
Cc1cccn2c(=O)c(-c3nnn[nH]3)cnc12: 96.4
C[C@]12CC[C@H](O)C[C@H]1CC[C@@H]1[C@@H]2CC[C@]2(C)[C@@](O)(c3ccoc3)CC[C@]12O: 96.1
CC(C)(C)c1ccc(S(=O)(=O)/C=C/C#N)cc1: 90.3

# map each compound to its cell viability
1. COc1ccc(Cn2ccc3ccc(C(=O)NO)cc32)cc1
2. COc1ccc(-c2oc3cc(OC)ccc3c2C(=O)c2ccc(C#N)cc2)cc1
3. CC(=O)N1CCN(CCOc2ccc(C3CCN(C4=Nn5c(nnc5C(F)(F)F)CC4)CC3)cc2)CC1
4. C=CC(=O)Nc1cccc(Nc2nc(Nc3ccc(Oc4ccnc(C(=O)NC)c4)cc3)ncc2F)c1
5. O=c1oc2cc(O)ccc2s1

// result
94.8
96.4
90.7
90.7
94.2

====

Assignment: determine reported cell viability for the given compounds.
system: Calu-3; assay: cell viability relative to DMSO; higher = less toxic; details: 72 h; 10 nM
Answers are plain numbers, in %.

Cc1ccc2cc(-c3c(C)ccc(C(=O)c4c(-c5ccccc5)n(C)n(-c5ccccc5)c4=O)c3N)ccc2n1: 102
CCCc1c2oc(C(=O)O)cc(=O)c2cc2c(=O)cc(C(=O)O)n(CC)c12: 99.4
CC(=O)Nc1ccc(OCC(O)CNC(C)C)cc1 (stereo not drawn): 114
C[C@]12CC[C@@H](O)C[C@@H]1CC[C@@H]1[C@@H]2CC[C@]2(C)C(c3ccccc3)=CC[C@@H]12: 106
COCCN1CCC(C(=O)NO)(S(=O)(=O)c2ccc(Oc3ccc(OC(F)(F)F)cc3)cc2)CC1: 96.8

# map each compound to its cell viability
1. CCCCCCCCCCCCCCCC(=O)OC[C@H](COP(=O)([O-])OCC[N+](C)(C)C)OC(=O)CCCCCCCCCCCCCCC [colfosceril-palmitate]
2. CC(C)Cc1ccc([C@@H](C)C(=O)NCCO)cc1 (racemic)
3. C[C@@H](N[C@H]1CCCC[C@@H]1NC(=O)c1ccc(Cl)cc1)c1cccc2ccccc12
4. CCOC(=O)Nc1ccc2c(c1)N(C(=O)CN(CC)CC)c1ccccc1CC2

// result
1: 103; 2: 103; 3: 108; 4: 99.6

# map each compound to its cell viability
1. O=C(Nc1cc2cc[nH]c2cn1)c1ccccc1
2. COc1ccc(-n2c(SCCCN3C(=O)c4cccc5cccc(c45)C3=O)nnc2-c2ccncc2)cc1
3. C[N+](C)(C)CCOP(=O)(O)OC[C@H](O)CO [choline-alfoscerate]
4. CC(C)c1cccc2c1OC(C(C)C)C(=S)N2CC(=O)O (stereo not drawn)

// result
[96.8, 103, 98, 106]

====

tested on: HepG2; assay: drug sensitivity score (DSS) for viability; higher = more toxic; extreme values may be limits of the assay; conditions: 72 h
Structures can show the parent of a compound that is named as a salt.
Assignment: determine reported drug sensitivity score for the given molecules.
Give bare numbers.

Here's what some known entries look like.
COCCN1CCC(C(=O)NO)(S(=O)(=O)c2ccc(Oc3ccc(OC(F)(F)F)cc3)cc2)CC1: 0
CC(=O)c1cc([N+](=O)[O-])c(Sc2cccc(Cl)c2Cl)s1: 0
CC(=O)NC[C@H]1CN(c2ccc(-c3ccc(CNCc4cnn[nH]4)cc3)c(F)c2)C(=O)O1: 8.1
Cc1cc(C)cc(C(=O)N(C)[C@H](Cc2ccc(-c3ccccc3)cc2)C(=O)N[C@@H](Cc2c[nH]c3ccccc23)C(=O)O)c1: 0
O=C(NC1CC1)c1cc(-c2cccs2)on1: 0
CC(=O)N1CCN(CCOc2ccc(C3CCN(C4=Nn5c(nnc5C(F)(F)F)CC4)CC3)cc2)CC1: 4.5
Cc1ccc(C(=O)N(CCCN)[C@@H](c2oc3cc(Cl)ccc3c(=O)c2Cc2ccccc2)C(C)C)cc1: 27.1
COc1ccc2[nH]c([S+]([O-])Cc3ncc(C)c(OC)c3C)nc2n1 (stereo not given): 0
CC(=O)N[C@@H](C=O)[C@@H](O)[C@H](O)[C@H](O)CO: 0
C#C[C@]1(O)CC[C@H]2[C@@H]3CCC4=CC(=O)CCC4=C3C=C[C@@]21CC: 0

# map each molecule to its drug sensitivity score
1. O=c1n(CCCN2CCN(c3cccc(Cl)c3)CC2)nc2ccccn12
2. O=C(O)c1ccccc1NCCc1ccccc1
3. CC[C@@H](c1cccc(O)c1)[C@@H](C)CN(C)C [Tapentadol (hydrochloride)]
4. O=C(O)C(=O)O.[NH-][C@@H]1CCCC[C@H]1[NH-].[Pt+2]

// result
1. 0
2. 0
3. 0
4. 6

# map each molecule to its drug sensitivity score
1. Cc1cccc(-c2[nH]c(C(C)(C)C)nc2-c2ccc3c(c2)OCO3)n1
2. CCCc1c2oc(C(=O)O)cc(=O)c2cc2c(=O)cc(C(=O)O)n(CC)c12
3. CC(C)(C#N)c1cc(Cn2cncn2)cc(C(C)(C)C#N)c1
4. CC1(C)[C@@H](O)CC[C@]2(C)[C@H]3C(=O)C=C4[C@@H]5C[C@@](C)(C(=O)O)CC[C@]5(C)CC[C@@]4(C)[C@]3(C)CC[C@@H]12
5. CC1Cc2ccccc2N1NC(=O)c1ccc(Cl)c(S(N)(=O)=O)c1 (stereo not given) [indapamide]
6. C1CCC(NC2CCCCC2)CC1
7. CCOC(=O)c1cnc2c(cnn2CC)c1NN=C(C)C [etazolate]
8. Cc1ncc([N+](=O)[O-])n1CC(O)CCl (stereo not given)

// result
1: 9.1; 2: 0; 3: 0; 4: 0; 5: 0; 6: 0; 7: 0; 8: 0

====

Assignment: determine reported relative viability EC50 for the given molecules.
test system: HepG2; assay: relative viability EC50 (midpoint between 100% and the lowest measured viability); higher = less toxic; conditions: 72 h

Here's what some known entries look like.
N#C/C(=C\c1ccc(O)c(O)c1)C(N)=O: > 10 µM
C[S+]([O-])c1ccc(-c2nc(-c3ccc(F)cc3)c(-c3ccncc3)[nH]2)cc1 (stereo not given): > 10 µM
COc1ccc(C2(O)CCC(N3CC[C@@H](NC(=O)CNC(=O)c4cccc(C(F)(F)F)c4)C3)CC2)cn1 (stereo not given in full): > 10 µM
Cc1cc2sc(NC(=O)Cc3ccccc3)nc2cc1Cl: > 10 µM
CCc1cccc(N(C)C(=N)Nc2cccc3ccccc23)c1: > 10 µM
c1ccc(CN(CC2=NCCN2)c2ccccc2)cc1: > 10 µM

# map each molecule to its relative viability EC50
1. COc1ccc(/C=C2\CCCN=C2c2cccnc2)c(OC)c1
2. Oc1cccc(Nc2ncc(F)c(Nc3cccc(O)c3)n2)c1
3. Cc1cnc(Nc2ccc(N3CCN(C)CC3)cc2)nc1Nc1cccc(S(=O)(=O)NC(C)(C)C)c1
4. CCOC(=O)Nc1ccc2c(c1)N(C(=O)CN(CC)CC)c1ccccc1CC2
5. CC(=O)C(=Cc1cc(O)c(O)c([N+](=O)[O-])c1)C(C)=O
6. CC(C)OC(=O)OCOP(=O)(CO[C@H](C)Cn1cnc2c(N)ncnc21)OCOC(=O)OC(C)C
7. COc1ccc(CCN(C)CCCN2CCc3cc(OC)c(OC)cc3CC2=O)cc1OC
8. O=C(Nc1ccc(Cl)cc1)Nc1ccc(Cl)c(Cl)c1

// result
1. > 10 µM
2. 2.72 µM
3. 0.8 µM
4. > 10 µM
5. > 10 µM
6. 1.35 µM
7. > 10 µM
8. > 10 µM
